// reported Activity for each item listed
Biological target: Mitogen-activated protein kinase 1 (Homo sapiens, UniProt P28482)
Sequence (P28482 whole entry): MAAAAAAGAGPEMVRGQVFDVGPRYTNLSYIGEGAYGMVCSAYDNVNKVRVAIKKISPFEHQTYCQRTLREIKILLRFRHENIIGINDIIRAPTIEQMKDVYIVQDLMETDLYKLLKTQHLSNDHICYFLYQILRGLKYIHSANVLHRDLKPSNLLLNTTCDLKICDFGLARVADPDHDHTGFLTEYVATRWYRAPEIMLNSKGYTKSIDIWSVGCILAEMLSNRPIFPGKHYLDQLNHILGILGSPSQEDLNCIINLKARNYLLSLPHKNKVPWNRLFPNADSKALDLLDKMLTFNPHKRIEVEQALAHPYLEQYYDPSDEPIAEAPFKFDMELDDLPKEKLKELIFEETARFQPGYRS
Assay: Binding affinity to ATP-binding site of ERK2 (unknown origin) assessed as reduction in signal intensity in presence of L100919 at 1 mM by competitive surface plasmon resonance method
Parameters: scale not given: the % may be the effect or the level left

{"Record Smiles": "N[C@H]1CC[C@H](N2Cc3c(F)cccc3C2=O)CC1", "Unit Of Measurement": "%", "Activity": 12}
{"Record Smiles": "CCOc1cc(N)cc(C(F)(F)F)c1", "Unit Of Measurement": "%", "Activity": 17}
{"Record Smiles": "O=C1c2cccc(F)c2CN1[C@H]1CCCNC1", "Unit Of Measurement": "%", "Activity": 26}
{"Record Smiles": "Fc1ccc2[nH]cc(C3CCOCC3)c2c1", "Unit Of Measurement": "%", "Activity": 10}
{"Record Smiles": "Nc1c(F)cccc1N1CCCCC1", "Unit Of Measurement": "%", "Activity": 17}
{"Record Smiles": "Nc1cnc2c(C(F)(F)F)cnn2c1", "Unit Of Measurement": "%", "Activity": 19}
{"Record Smiles": "O=C(O)c1ccc2nc(-c3ccccc3F)nn2c1", "Unit Of Measurement": "%", "Activity": 12}

----------
Each entry below carries its reported Activity.
Target: Mitogen-activated protein kinase 1 (Homo sapiens)
Assay: Binding affinity to ATP-binding site of ERK2 (unknown origin) assessed as reduction in signal intensity in presence of L100919 by competitive 19F NMR spectroscopy
Parameters: concentration or dose not given beside the values

{"Record Smiles": "Nc1c(F)cccc1N1CCCCC1", "Activity / %": 12}
{"Record Smiles": "COCCCNc1ccc(F)cc1[N+](=O)[O-]", "Activity / %": 14}
{"Record Smiles": "Fc1ccc2[nH]cc(C3CCOCC3)c2c1", "Activity / %": 14}
{"Record Smiles": "FC(F)(F)c1cnn2cc(Br)cnc12", "Activity / %": 5}
{"Record Smiles": "Fc1cccc2c1CC1(CCOCC1)CN2", "Activity / %": 16}
{"Record Smiles": "Nc1ccc2nc(-c3ccc(F)cc3)nn2c1", "Activity / %": 24}
{"Record Smiles": "CC(C)(C)OC(=O)N1CCC(Cc2cccc(C(F)(F)F)c2)(C(=O)O)CC1", "Activity / %": 25}
{"Record Smiles": "CC(C)(C)OC(=O)N1CCC2(CC1)C(=O)Nc1ccc(F)cc12", "Activity / %": 15}
{"Record Smiles": "Fc1cccc(-c2nnc3ccc(Br)cn23)c1", "Activity / %": 20}
{"Record Smiles": "O=C1c2cccc(F)c2CN1[C@H]1CCCNC1", "Activity / %": 8}
{"Record Smiles": "O=C(O)c1ccc2nc(-c3ccccc3F)nn2c1", "Activity / %": 24}
{"Record Smiles": "Nc1cnc(Nc2ccc(C(F)(F)F)cc2)nc1", "Activity / %": 5}
{"Record Smiles": "Fc1ccc2c(CC3CCOCC3)c[nH]c2c1", "Activity / %": 23}

----------
Target: Mitogen-activated protein kinase 1 (Homo sapiens)
Assay: Binding affinity to ATP-binding site of ERK2 (unknown origin) assessed as reduction in signal intensity by 19F NMR spectroscopy
Set-up: concentration or dose not given beside the values
Endpoint Label: Activity (%)

{"Record Smiles": "NC1CCN(c2cccc(F)c2[N+](=O)[O-])CC1", "Endpoint Label": "Activity", "Value Measured": 39}
{"Record Smiles": "CC(C)(C)OC(=O)N1CCC(CN)(Cc2ccc(C(F)(F)F)cc2)CC1", "Endpoint Label": "Activity", "Value Measured": 32}
{"Record Smiles": "Fc1cccc2c1CC1(CCOCC1)CN2", "Endpoint Label": "Activity", "Value Measured": 29}
{"Record Smiles": "O=C1c2ccc(F)cc2CN1C1CCNCC1", "Endpoint Label": "Activity", "Value Measured": 13}
{"Record Smiles": "Nc1cnc(Nc2ccc(C(F)(F)F)cc2)nc1", "Endpoint Label": "Activity", "Value Measured": 40}
{"Record Smiles": "FC(F)(F)c1ccnc(NC2CCNCC2)c1", "Endpoint Label": "Activity", "Value Measured": 11}
{"Record Smiles": "CC(C)(C)OC(=O)N1CCC(CN)(Cc2cccc(C(F)(F)F)c2)CC1", "Endpoint Label": "Activity", "Value Measured": 26}
{"Record Smiles": "Fc1ccc2[nH]cc(CC3CCOCC3)c2c1", "Endpoint Label": "Activity", "Value Measured": 28}
{"Record Smiles": "N[C@H]1CC[C@H](N2Cc3c(F)cccc3C2=O)CC1", "Endpoint Label": "Activity", "Value Measured": 41}
{"Record Smiles": "Fc1ccc2c(CC3CCOCC3)c[nH]c2c1", "Endpoint Label": "Activity", "Value Measured": 36}
{"Record Smiles": "FC(F)(F)c1cnn2cc(Br)cnc12", "Endpoint Label": "Activity", "Value Measured": 33}
{"Record Smiles": "Nc1ccc2nc(-c3ccc(F)cc3)nn2c1", "Endpoint Label": "Activity", "Value Measured": 43}
{"Record Smiles": "Fc1ccc2[nH]cc(C3CCOCC3)c2c1", "Endpoint Label": "Activity", "Value Measured": 14}

Where do these numbers come from? They come from ChEMBL document CHEMBL4118109.
